# Test system: MDA-MB-231 human breast carcinoma cells
# experimental_details: MDA-MB-231 in vitro cellular proliferation inhibition (BrdU)
# Assay type: cell-based
# run_parameters: Table 2, 2 substituted E2 derivatives; read-out: MDA-MB-231 (IC50 μM)
observation_type: IC50 (µM)
Give the value, in units of µM, as a plain number.

Request: Item under review: COc1cc2c(cc1O)CC[C@@H]1[C@@H]2CC[C@]2(C)[C@@H](O)CC[C@@H]12 [2-Methoxyestradiol, reference compound] . Reported IC50?
Response: 0.5
